Field: ID50 po. Provide a value for each of the molecules that follow.
# System: L-687,414-induced hyperlocomotion
# ASSAY_OVERVIEW: L-687,414-induced hyperlocomotion (Digiscan locomotor activity)
# Type: in vivo, mouse
# STUDY_CONDITIONS: dose producing 50% inhibition of L-687,414-induced hyperlocomotion; p.o. 15 min before s.c. 50 mg/kg L-687,414; mice
Numbers only; they are read as mg/kg.

Q: For CN1C(=O)C(C)(C)c2ccc(-c3cnc4c(c3)NCCO4)cc21 , what is its reported ID50 po?
Result: 3.03

Q: Same question, CC1(C)C(=O)Nc2cc(-c3ccncc3)ccc21 this time
Result: 29.2

Q: Request: Cc1ncc(-c2ccc3c(c2)N(CCO)C(=O)C3(C)C)cn1
Result: 0.88

Q: Do the same for CN1C(=O)C(C)(C)c2ccc(-n3ccnc3)cc21 please
Result: 10.71

Q: Same question for Cc1ncc(-c2ccc3c(c2)NC(=O)C3(C)C)cn1 please.
Result: 1.62

Reference source: patent US9616053B2
